Provide the reported pIC50 of each item.
# Tested on: pSTAT5/GM-CSF
# PROTOCOL: pSTAT5/GM-CSF cellular assay (JAK2 selectivity)
# Assay type: cell-based
pIC50: −log10 of the molar value.

Here are 2 compounds together with their reported answers.
COMPOUND: CC(=O)Nc1cc(Nc2nc(S(C)(=O)=O)ccc2OC(F)F)c(-c2ccn(C)n2)cn1
VALUE: < 5.00

COMPOUND: CCn1ccc(-c2cnc(NC(C)=O)cc2Nc2cc(OC)cc(S(C)(=O)=O)c2)n1
VALUE: < 5.00

Please report pIC50 for every entry that follows.
1. CC(=O)Nc1cc(Nc2cc(OCC(C)O)cc(S(C)(=O)=O)n2)c(-c2ccn(C)n2)cn1 (centres unmarked)
2. CC(=O)Nc1cc(Nc2cc(OC(C)C)cc(S(C)(=O)=O)n2)c(-c2ccn(C3CCC3)n2)cn1
3. CCn1ccc(-c2cnc(NC(C)=O)cc2Nc2cccc(S(C)(=O)=O)n2)n1
4. CC(=O)Nc1cc(Nc2cc(OC3COC3)cc(S(C)(=O)=O)n2)c(-c2ccn(C)n2)cn1
5. CC(=O)Nc1cc(Nc2cc(C)cc(S(C)(=O)=O)n2)c(-c2ccc(C(C)(C)O)cn2)cn1
6. COCCOc1cc(Nc2cc(NC(C)=O)ncc2-c2ccn(C)n2)nc(S(C)(=O)=O)c1

["< 5.00", "< 5.00", 5.81, "< 5.00", 5.80, "< 5.00"]

* * *

Give Selectivity fold (TYK2/JAK2) for every item shown.
# Test system: JAK2, TYK2/p-STAT4 (Tyr693) activated by IL-12 in NK-92 cell line
# PROTOCOL: IL-12-JAK2, TYK2/p-STAT4 (Tyr693) inhibition IC50 cellular assay
# Assay type: cell-based
# CONDITION: Cellular assay; pSTAT5/GM-CSF IC50 vs pSTAT4/IL-12 IC50
# Excerpt: Assay C: IL-12-JAK2, TYK2/p-STAT4 (Tyr693) Inhibition IC50 Cellular Assay To evaluate the inhibition effect of compounds disclosed herein on JAK2, TYK2/p-STAT4 (Tyr693) activated by IL-12 in NK-92 cell line, NK-92 cells were collected and washed 3 times by DPBS and resuspended in MEM-α (GIBCO, Cat #12561056) with 10% FBS (Gibco, Cat #10099, Lot #1891605), without IL-2 (R&D systems, Cat #202-IL), starved overnight. […] Read on BMG PheraStar with Alphascreen protocol. […]

STRUCTURE: CC(=O)Nc1cc(Nc2cc(C)cc(S(C)(=O)=O)n2)c(-c2ccc(C(C)(C)O)cn2)cn1
TEST_TARGET: JAK2, TYK2/p-STAT4 (Tyr693) activated by IL-12 in NK-92 cell line
Selectivity fold (TYK2/JAK2): 3147 fold

STRUCTURE: CC(=O)Nc1cc(Nc2cc(OCC3COC3)cc(S(C)(=O)=O)n2)c(-c2ccc(C(C)(C)O)cn2)cn1
TEST_TARGET: JAK2, TYK2/p-STAT4 (Tyr693) activated by IL-12 in NK-92 cell line
Selectivity fold (TYK2/JAK2): >1960 fold

STRUCTURE: CC(=O)Nc1cc(Nc2cccc(S(C)(=O)=O)c2)c(-c2cccnn2)cn1
TEST_TARGET: JAK2, TYK2/p-STAT4 (Tyr693) activated by IL-12 in NK-92 cell line
Selectivity fold (TYK2/JAK2): >125 fold

From here, focus on the item given below.
Dear colleague, please send me the reported Selectivity fold (TYK2/JAK2) for COc1ccc(S(C)(=O)=O)nc1Nc1cc(NC(C)=O)ncc1-c1cnn(C)c1 when you can. >239 fold

* * *

# System: pSTAT5/GM-CSF
# PROTOCOL: pSTAT5/GM-CSF cellular assay (JAK2 selectivity)
# Format: cell-based
MEASUREMENT_KIND: pIC50
One number for each entry, as −log10 of the molar value.

MOLECULE: COc1cc(S(C)(=O)=O)nc(Nc2cc(NC(C)=O)ncc2-c2ccc3c(n2)OCC(C)(C)O3)c1OC [Example Q26]
VALUE: 6.15

Now, please, on to the next molecule.
Please supply the value of reported pIC50 for the item CC(=O)Nc1cc(Nc2cc(C)cc(S(C)(=O)=O)n2)c(-c2ccc(C(C)(C)N)cn2)cn1 [Example A20] 5.62

* * *

Record form. Attribute: IC50. Fill in for each entry.
# TEST_TARGET: TYK2-JH2 (aa 575-869, in-house) protein (Homo sapiens, UniProt P29597)
# Construct: TYK2-JH2 (aa 575-869, in-house) protein; made in house
# Sequence (P29597 575-869): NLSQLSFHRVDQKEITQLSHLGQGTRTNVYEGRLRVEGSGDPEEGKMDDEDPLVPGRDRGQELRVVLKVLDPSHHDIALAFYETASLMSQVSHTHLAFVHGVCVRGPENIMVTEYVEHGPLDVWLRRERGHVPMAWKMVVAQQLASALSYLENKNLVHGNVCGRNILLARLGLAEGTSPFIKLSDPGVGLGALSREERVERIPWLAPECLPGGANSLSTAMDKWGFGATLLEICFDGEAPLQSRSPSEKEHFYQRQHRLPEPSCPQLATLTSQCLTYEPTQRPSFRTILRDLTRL
# PROTOCOL: TYK2-JH2 biochemical assay (HTRF probe displacement)
# Assay type: binding
# CONDITION: Biochemical assay; read-out: TYK2-JH2 IC50
Give bare numbers, in nM.

These solved cases illustrate the format of a correct answer.
COMPOUND: CC(=O)Nc1cc(Nc2ccc(C)c(S(C)(=O)=O)n2)c(-c2ccn(C)n2)cn1 [Example J51]
QUANTITY_UNIT: nM
IC50: 0.043
--
COMPOUND: COC(C)c1cc(Nc2cc(NC(C)=O)ncc2-c2ccc(N3C[C@@H](C)O[C@@H](C)C3)cn2)nc(S(C)(=O)=O)c1 (stereo partly drawn) [Example C18]
QUANTITY_UNIT: nM
IC50: 0.023
--
COMPOUND: CC(=O)Nc1cc(Nc2cc(OC(C)C)cc(S(C)(=O)=O)n2)c(-c2cccc(C#N)n2)cn1 [Example A16]
QUANTITY_UNIT: nM
IC50: 0.021
--
COMPOUND: CC(=O)Nc1cc(Nc2cc(OCCO)cc(S(C)(=O)=O)n2)c(-c2ccn(C)n2)cn1 [Example J15]
QUANTITY_UNIT: nM
IC50: 0.016
--
COMPOUND: CC(=O)Nc1cc(Nc2cc(OC(C)C)cc(S(C)(=O)=O)n2)c(-c2ccn(C3CCC3)n2)cn1 [Example A19]
QUANTITY_UNIT: nM
IC50: 0.034
--
COMPOUND: COc1cc(Nc2cc(NC(C)=O)ncc2-c2cc(C)n(C)n2)nc(S(C)(=O)=O)c1 [Example N4]
QUANTITY_UNIT: nM
IC50: 0.029
--
COMPOUND: CC(=O)Nc1cc(Nc2ccccc2)c(-c2ccccn2)cn1 [Example B3]
QUANTITY_UNIT: nM
IC50: 1.1
--
COMPOUND: COC1CC(Oc2cc(Nc3cc(NC(C)=O)ncc3-c3ccn(C)n3)nc(S(C)(=O)=O)c2)C1 (stereo not drawn) [Example J18]
QUANTITY_UNIT: nM
IC50: 0.028

Hi, could you look up IC50 for each item in my list?
1. CC(=O)Nc1cc(Nc2cc(C)cc(S(C)(=O)=O)n2)c(-c2ccco2)cn1 [Example A9]
2. CC(=O)Nc1cc(Nc2cc(OC(C)C)cc(S(C)(=O)=O)c2)c(-c2ccn(C(C)C)n2)cn1 [Example M26]
3. COCC1CCN(c2cc(Nc3cc(NC(C)=O)ncc3-c3ccc4c(n3)OCC(C)(C)O4)nc(S(C)(=O)=O)c2)C1 (stereo not drawn) [Example Q73]

1. 0.041
2. 0.046
3. 0.025

Answer for every listed entry: what is its IC50? The entries follow.
1. CC(=O)Nc1cc(Nc2cc(C#N)cc(S(C)(=O)=O)n2)c(-c2ccc(C(C)(C)O)cn2)cn1 [Example H14]
2. [2H]C([2H])([2H])Oc1cc(Nc2cc(NC(C)=O)ncc2-c2ccc(N3C[C@@H](C)O[C@@H](C)C3)cn2)nc(S(C)(=O)=O)c1 [Example C17]
3. CC(=O)Nc1cc(Nc2cccc(S(C)(=O)=O)c2)c(-c2ccc(N3CCOCC3)cn2)cn1 [Example B11]
4. CC(=O)Nc1cc(Nc2cc(C3CCOCC3)cc(S(C)(=O)=O)n2)c(-c2ccc(N3C[C@@H](C)O[C@@H](C)C3)cn2)cn1 [Example C21]

0.034
0.022
0.019
0.024

* * *

# TEST_TARGET: TYK2-JH2 (aa 575-869, in-house) protein (Homo sapiens, UniProt P29597)
# Construct: TYK2-JH2 (aa 575-869, in-house) protein; made in house
# PROTOCOL: TYK2-JH2 biochemical assay (HTRF probe displacement)
# Assay type: binding
# CONDITION: Biochemical assay; read-out: TYK2-JH2 IC50
MEASUREMENT_KIND: IC50
Answer with the figure and its unit, nothing else.

MOLECULE: COc1cc(Nc2cc(NC(C)=O)ncc2-c2ccn(C(C)C)n2)cc(S(C)(=O)=O)c1 [Example M27]
TEST_TARGET: TYK2-JH2 (aa 575-869, in-house) protein (Homo sapiens, UniProt P29597)
VALUE: 0.035 nM

Give me IC50 for each of these molecules, listed below.
1. COc1ccc(-c2cnc(NC(C)=O)cc2Nc2cc(N3C[C@@H](C)O[C@@H](C)C3)cc(S(C)(=O)=O)n2)nn1 [Example A27]
2. [2H]C([2H])([2H])Oc1cc(Nc2cc(NC(C)=O)ncc2-c2ccc(F)cn2)nc(S(C)(=O)=O)c1 [Example F24]

1: 0.034 nM; 2: 0.033 nM

Answer with reported IC50 of CCn1ccc(-c2cnc(NC(C)=O)cc2Nc2cc(OC3CCCC3)cc(S(C)(=O)=O)n2)n1 [Example M17] 0.041 nM
